Listed compounds paired with reported PDE III Inhibition
test system: phosphodiesterase III; assay: inhibition of phosphodiesterase III activity; type: biochemical; details: at 100 μM
Numbers only; they are read as %.

In the examples that follow, each entry is paired with its recorded PDE III Inhibition.
{"columns": ["COMPOUND", "PDE III Inhibition [%]"],
 "data": [
  ["CCOP(=O)(CCCn1cnc2c1c(=O)[nH]c(=O)n2C)OCC [Example 2]", 65],
  ["CCCn1cnc2c1c(=O)n(CCCP(=O)(OCC)OCC)c(=O)n2C1CC1 [Example 39]", 65],
  ["CCOP(=O)(CCCCn1c(=O)c2c(ncn2Cc2ccccc2)n(C)c1=O)OCC [Example 23]", 65],
  ["CCOP(=O)(CCCCn1c(=O)c2c(ncn2CC2CC2)n(C)c1=O)OCC [Example 50]", 51],
  ["CCCn1cnc2c1c(=O)n(CCCCCP(=O)(OCC)OCC)c(=O)n2CC [Example 57]", 70],
  ["CCOP(=O)(CCCCn1c(=O)c2c(ncn2CCC(C)C)n(C)c1=O)OCC [Example 41]", 56],
  ["CCOP(=O)(CCCn1c(=O)c2c(ncn2CC2CC2)n(C)c1=O)OCC [Example 46]", 67],
  ["CCOP(=O)(CCCCCn1c(=O)c2c(ncn2CC2CC2)n(C)c1=O)OCC [Example 49]", 57]
]}

Query: Specify measured PDE III Inhibition for CCOP(=O)(CCCCCn1c(=O)c2c(ncn2Cc2ccccc2)n(C)c1=O)OCC [Example 43] .
Reply: 52
